- testedOn: T1, HSC70 (HSPA8), His-tagged (UniProt P11142 1-646)
- T1 construct: HSC70 (HSPA8), the constitutive form of HSP70
- testName: ELISA; titration of increasing concentrations of chaperone on immobilised biotinylated peptide; HSC70 with ATP; apparent Kd from linearised binding curves
- recordedConditions: both partners purified
Ends that are not written are not given here. * marks the point of attachment. Biotin = O=C1N[C@H]2[C@H](CS[C@H]2CCCCC(=O)*)N1
measurementName: Kd (µM)
Your answer should be a plain number; it is taken to be in µM.

Biotin-GSGSTVILCEHRIEAMLEC (cysteine pairing not given here, linker; CFTR, 15-mer numbered by its middle residue 1403, from NBD2; source: synthetic peptide (Mimotopes, PepSet purity)) [CFTR peptide 1403-L, biotinylated (library form)] = 11.1

Alright, here's another binder for you.
get_value(item= Biotin-GSGSRTLKQAFADCTVILC (cysteine pairing not given here, linker; CFTR, 15-mer numbered by its middle residue 1393, from NBD2; source: synthetic peptide (Mimotopes, PepSet purity)) [CFTR peptide 1393-L, biotinylated (library form)] , readout=Kd) returns 9.06
